Entries and their measured kon follow.
- target: T1, monkey Trop2 protein (Sino Biological, #90893-C08H) (monkey, UniProt A0A2K5UE71 27-274)
- T1 construct: bought protein; also called monkey Trop2 protein antigen (His tag)
- T1 sequence: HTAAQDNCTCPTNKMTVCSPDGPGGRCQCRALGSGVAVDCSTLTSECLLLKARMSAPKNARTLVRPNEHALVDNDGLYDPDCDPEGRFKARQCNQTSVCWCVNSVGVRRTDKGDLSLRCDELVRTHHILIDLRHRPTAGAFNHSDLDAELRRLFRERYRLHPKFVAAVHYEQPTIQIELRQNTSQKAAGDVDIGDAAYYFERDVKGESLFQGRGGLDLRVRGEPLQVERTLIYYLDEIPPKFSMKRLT
- assay_overview: BLI, Octet RED96, AHC sensor
Number in M⁻¹ s⁻¹, nothing else.

The examples below pair each entry with its known result.
binder="PR001132 (antibody, human IgG1, kappa, V domains shown, fully human IgG1/kappa; also called antibody No. (4)) VH: QVELVESGGGVVQPGRSLRLSCGASGFTFSSYNMYWVRQAPGKGLEWVAGIWDDGNNKYYANSVKGRFTISRDNSKNTLYLQMNSLRTEDTALYYCAKDGWGSYGEYFQHWGQGTLVTVSS VL: DIQMTQSPSSLSASVGERVTITCRASQNINSYLSWYQQKPGKAPKLLIYAASSLQNGVPSRFSGSGSGTDFTLTISSLQPEDFATYYCQQSFSTPPITFGQGTRLEIKR" measured_parameter=kon result=86900
binder="PR001170 (antibody, human IgG1, kappa, V domains shown, fully human IgG1/kappa; also called antibody No. (29)) VH: QVQLQESGPGLVKPSETLSLTCAVSGYSINSGYFWAWIRQPPGMGLEWIGSIYHSGRTHYNPSLKSRVIISLDTSKNQFSLKLRSVTAADSAVYYCAREGYASGSYYWGQGTLVTVSS VL: EIVMTQSPATLSVSPGERATLSCRSSQSVNSYLAWFQQKPGQAPRLLIYDSSTRATGIPARFSGSGSGTEFTLTISSLQSEDFAFYFCQQYENWPLTFGGGTKVEIKR" measured_parameter=kon result=307000
binder="PR001168 (antibody, human IgG1, kappa, V domains shown, fully human IgG1/kappa; also called antibody No. (28)) VH: QVQLVESGGGVVQPGRSLRLSCATSGFIFSSYGMHWVRQAPGKGLDWVAVIWYDGSNKYYADSVKGRFTISRDNSKNTLYLQMNSLRVEDTAVYYCARETSSWYVGYLQHWGQGTLVTVSS VL: EIVMTQSPATLSVSPGERVSLSCRASQSVNGNVAWYQQKPGQAPRLLIYAASTRATGIPARFSGSGSGTESTLTISSLQSEDCAVYYCQQYNNWPSTFGPGTKLEVTR" measured_parameter=kon result=59300

Any idea what its kon is? The binder is PR001165 (antibody, human IgG1, kappa, V domains shown, fully human IgG1/kappa; also called antibody No. (26)) VH: QVQLVESGGGVVQPGRSLRLSCEASGFTFSHYGMHWVRQAPGKGLEWVAVIWYDGIKTYYVESVKGRFTISRDNSKNTLNLQMNRLRAEDTAVYYCARDGGFGESNYYGLDVWGQGTTVTVSS VL: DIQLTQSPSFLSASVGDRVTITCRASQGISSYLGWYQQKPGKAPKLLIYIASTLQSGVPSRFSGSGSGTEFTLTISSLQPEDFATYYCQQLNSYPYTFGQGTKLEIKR
101000
